# apparent KD of MS2 coat protein values compiled below
System: MS2 coat protein
ASSAY METHOD TEXT: apparent KD of MS2 coat protein; higher = weaker reporter binding
STATED CONDITIONS: Eterna round: R107; input ligand: theophylline 2 mM
Please give a number only; it is taken to be in nM.

Solved cases below.
{"ORDERED RESIDUES": "GCAUCCUAGUCGGCCGCCACUGCAGUAGCACCUGCUACAUGGAAACAUGAGGAUCACCCAUGUAGCAGGACCGGGACUAGGAUGC [(Trp1)-(TM)''-(TM)'-(Ms2)-(Trp2)_Design8]", "UNIT SPEC": "nM", "apparent KD of MS2 coat protein": 909}
{"ORDERED RESIDUES": "AAUAAGCAGCUGCAUCAUGGGUGAGCAGAUACCAGCUAGGAAACUAGCCCUUGGCAGCUGCAACAUGAGGAUCACCCAUGUAAUA [(T)'-(M)'-(T1)-(T2)-(M1)-(M2)_Design5]", "UNIT SPEC": "nM", "apparent KD of MS2 coat protein": 46.3}
{"ORDERED RESIDUES": "ACCUGUACGAAAAGUGCAGGACAGGAAAAUCGAGGACCGGUACGGCCGCCACUCGUAUAAACAAGUGGAUCACCCUUGUAACCUG [TrypAS 1 #AlternativeMS2 #Zipper]", "UNIT SPEC": "nM", "apparent KD of MS2 coat protein": 1760}
{"ORDERED RESIDUES": "GCGAUGGAGCGAAGGAGCGGCUAUCACCGACAAAACAUGAGGAUCACCCAUGUUGGCAGUGGCCAGGUAGGUCGCGCUCCAUCGC [EAB NP+V+V2 #8]", "UNIT SPEC": "nM", "apparent KD of MS2 coat protein": 10.8}
{"ORDERED RESIDUES": "UGAAAGUAGGGAAGGAGCGCUACAACAUGAGGAUCACCCAUGUAAUGAGGAUCACCCAUGUGGCAGGUAGGUCGCCCAAAACAUG [#14 Same State - Arginine B]", "UNIT SPEC": "nM", "apparent KD of MS2 coat protein": 197}

Query string: Fill: apparent KD of MS2 coat protein (MS2 coat protein) for this sequence GGGCGCGUGGACCGGCGUGCUCCGCUCCGUCGAGGACCGGUACGGCCGCCACUCGACAUGAGGAUCACCCAUGUGUGAGCUCGCG [#1 Exclusion - Tryptophan A Attempt #16 (HarryS)]
Result string: 80

Query string: Fill: apparent KD of MS2 coat protein (MS2 coat protein) for this sequence UUGGGUUUGCGAAGGAGCGGGUAUGUUUUCUAGUGGAUCCUAACAUGAGGAUCACCCAUGUCCCAGGUAGGUCGCGCGGGUUUGG [12.V]
Result string: 224

Query string: Fill: apparent KD of MS2 coat protein (MS2 coat protein) for this sequence UGACACAUGAGGAUCACCCAUGUCGCGAAACGAGGACCGGUACGGCCGCCACUCGCACAAACUCCUCUCCAGCACCAGCUUUUAG [theeternabot_sameState_MS2_Trp_A_3]
Result string: 24.2

Query string: Fill: apparent KD of MS2 coat protein (MS2 coat protein) for this sequence AAAGACAUGAGGAUCACCCAUGUGGGUGGGCGAGGACCGGUACGGCCGCCACUCGUGGGCGGGAAGGGAUAUUUAAUAAGGAAGA [same state--tryptophan A 1st shot]
Result string: 272

Query string: Fill: apparent KD of MS2 coat protein (MS2 coat protein) for this sequence GGCACAUAGUCGGCCGCCACUAGAAUAAGAUGGAAUAACAUGAGGAUCACCCAUGUAAAAGGGACUAGGACCGGGACUAUGUGCC [Goat]
Result string: 14.3

Query string: Fill: apparent KD of MS2 coat protein (MS2 coat protein) for this sequence AAAAUAAACUCGGCCGCCACUCAACGGACCCUUUGGACAUGAGGAUCACCCAUGUAUUUUGGAAAGAGGACCGGGAGAAAUAAAA [Exclusion - Trytophan B]
Result string: 11.7

Query string: Fill: apparent KD of MS2 coat protein (MS2 coat protein) for this sequence UCGUUUGAGGCGGCCGCCACUGGUCUCAUGGUCAACAUGAGGAUCACCCAUGUAUCUUAGUUAAGCAGGACCGGGCCUCGAGCGA [#18 Exclusion Tryptophan B]
Result string: 95.6

Query string: Fill: apparent KD of MS2 coat protein (MS2 coat protein) for this sequence AGGACAUGAGGAUCACCCAUGUACUCUGAAGGAGCGUCGAGAACGACAGGUAGGUCGCAGGCUAAGGAAGGUGAUGCUCAAGAAG [Exclusion Arginine A GF7]
Result string: 24.8

Query string: Fill: apparent KD of MS2 coat protein (MS2 coat protein) for this sequence UUAAUUAUAUAUUAUUUAAUAUUUACAGAAGGAGCGUGAUAAAACACAGGUAGGUCGCUGAAGGGAACAUGAGGAUCACCCAUGU [AstrosSSArgA#20]
Result string: 60.1

* * *

Test system: MS2 coat protein
ASSAY METHOD TEXT: apparent KD of MS2 coat protein; designed switch direction (-1 OFF switch, 1 ON switch): -1; higher = weaker reporter binding
STATED CONDITIONS: Eterna round: R95; input ligand: microRNA oligo, concentration not stated
MEASURED QUANTITY: apparent KD of MS2 coat protein (nM)
Please give a number only; it is taken to be in nM.

Solved cases below.
{"ORDERED RESIDUES": "GAGUGACAUGAGGAUCACCCAUGUGAGGAUAUCGGACGGACCAAAUUAACAAUAAUUGCGAGAAGGCGCAUCGG [Exclusion 1 V15] (puzzle: Exclusion 1)", "TEST SYSTEM": "MS2 coat protein", "apparent KD of MS2 coat protein (nM)": 51.6}
{"ORDERED RESIDUES": "CGAGUGUAAGGAUAUUCGGCGCCAGGGAACAACCUAGCGUAGAAGAAGGUACAUGAGGAUCACCCAUGUGGUUA [Riatees] (puzzle: Exclusion 4)", "TEST SYSTEM": "MS2 coat protein", "apparent KD of MS2 coat protein (nM)": 151}
{"ORDERED RESIDUES": "AGUACUAUGCGAGCUGACUUGCGUAGUGCAGCAGGUGAAACAUGAGGAUCACCCAUGUCCUCAUUUGCUCGUCUUAU [Mat - Sensor v3 - Turn-off var 2 - D2] (puzzle: Sensor v3, turn-off variant 2)", "TEST SYSTEM": "MS2 coat protein", "apparent KD of MS2 coat protein (nM)": 502}
{"ORDERED RESIDUES": "AAAAUGGUCUAGGAUAUGACAAAUCUGAGCACGUCAGAAGGAGACACAUGAGGAUCACCCAUGUGGGUGCGAAA [Erteedza] (puzzle: Exclusion 6)", "TEST SYSTEM": "MS2 coat protein", "apparent KD of MS2 coat protein (nM)": 31.8}
{"ORDERED RESIDUES": "CCGGAAUAGCAGGAUAUAGGAGUCGAUAGACACCUAGAAGGGUUGACAUGAGGAUCACCCAUGUGUCCUACCGG [Fiskers Ex 6 - 82] (puzzle: Exclusion 6)", "TEST SYSTEM": "MS2 coat protein", "apparent KD of MS2 coat protein (nM)": 247}

Read the next record carefully.
Query string: Give me measured apparent KD of MS2 coat protein, please, for this sequence: AAGAAGAUAGGAUAUACGAGGAGAGGAGAGAAGAGGUGAGGACAUGAGGAUCACCCAUGUAGAAGGAUCAGGAA [JR_Exclu2_Sub063] (puzzle: Exclusion 2)
Result string: 266

* * *

Tested on: MS2 coat protein
ASSAY METHOD TEXT: apparent KD of MS2 coat protein, switch ON state; designed switch direction (-1 OFF switch, 1 ON switch): 1; higher = weaker reporter binding
STATED CONDITIONS: FMN input: 0 or 200 uM; Eterna round: R93 (includes R88 designs)
Label Yes when apparent KD of MS2 coat protein >= 0.04 µM; otherwise No.

Look over these answered cases.
{"ORDERED RESIDUES": "AGAAAUAAAAGACAGGAUAUCCAAAACUCAACAUGAGGAUCACCCAUGUAAAAGAAAAUAAAAUGGGAGAAGGGUCAAAAUAAGA [Jieux modified + C segment V2]", "CLASS ASSIGNMENT": "No"}
{"ORDERED RESIDUES": "AACAAUCUAUCUGAGGAUAUCAUGUCAAAGACAUGAGGAUCACCCAUGUAGCAGGAAACUGCAUAUGAGAAGGCAGAUAGAUUGA [SS2: 1118]", "CLASS ASSIGNMENT": "No"}
{"ORDERED RESIDUES": "UCCUUACAUGAGGAUCACCCAUGUCGCAGGAAUCAAGGAUAUGGGACCGCAAUGCGGAAACCAGAAGGUGACAAAA [Zaesor]", "CLASS ASSIGNMENT": "Yes"}

Query string: Determine whether this sequence has apparent KD of MS2 coat protein no lower than 0.04 µM: AAAAAAAAAGUCGAGGAUAUCCACAUGGCUACAUGAGGAUCACCCAUGUGAAGAAAAGCACAUGAGGAGAAGGCGACAAAAAAAAA [Tightrope]
Result string: No

Query string: Determine whether this sequence has apparent KD of MS2 coat protein no lower than 0.04 µM: AAUAAGACUAGCAAGGAUAUCUAAAACGAAACAUGAGGAUCACCCAUGUAACGAGUACACGUAUCAGAGAAGGUGCAGGGUGAAA [JR_SS002_Sub305]
Result string: No

Query string: Determine whether this sequence has apparent KD of MS2 coat protein no lower than 0.04 µM: AGAAAUAAAGGAGAGGAUAUUCAAAAAGGGACAUGAGGAUCACCCAUGUAAAAGAAAAUAAAAUGGGAGAAGGCUCUAAAUAAAG [80%, More Helter Skelter 2]
Result string: Yes
